experiment: Assessment of solubility: HT solubility in pION buffer, UV spectrophotometry; conditions: pION system solution buffer, pH 4.5, pH 4.5, aqueous buffer, kinetic from dmso stock, Solubility (pH 4.5), pH 4.5 buffer, 16-19 h incubation, 1.0% DMSO
Please go through the items and note down their solubility.

Q. Would you kindly share the measured solubility for `Cc1ccc(OCc2ccc(C(=O)N3CCC(F)(F)C3)cc2C)c(-c2csc(N3C[C@H]4CC[C@@H](C3)[C@H]4C(=O)O)n2)c1` ?
A. < 0.1 µg/mL

Q. Lookup Cc1cc(CN2CCOCC2)ccc1COc1ccc(C#N)cc1-c1csc(N2CCC(C(=O)O)C(C)C2)n1 (centres unmarked)
A. 0.5 µg/mL

Q. Next record, please: `Cc1cc(CN2CCOCC2)ccc1COc1ccc(F)cc1-c1csc(N2CCC(C(=O)O)CC2)n1`
A. > 52 µg/mL

Q. Next record, please: `Cc1ccc(OCc2ccc(CN3CCCCC3)cc2C#N)c(-c2csc(N3CCC(C(=O)O)CC3)n2)c1`
A. > 64 µg/mL

Q. Now the same for Cc1ccc(OCc2ccc(CN3CCOCC3)cc2C)c(-c2csc(N3CC[C@@H](C(=O)O)[C@@H](C)C3)n2)c1 [Compound 173]
A. > 64 µg/mL

Q. Next entry: `Cc1cc(CN2CCOCC2)ccc1COc1c(-c2csc(N3CCC(C(=O)O)CC3)n2)cccc1C(F)(F)F`
A. > 57 µg/mL

Q. What would you report for Cc1ccc(OCc2ccc(CN3CCOCC3)cc2C)c(-c2csc(N3C4CCC3CC(C(=O)O)C4)n2)c1 (centres unmarked) ?
A. > 66 µg/mL

Q. Let us now turn to Cc1cc(C(=O)N2CCCCC2)ccc1COc1ccc(Cl)cc1-c1csc(N2CCC(C(=O)O)C(C)C2)n1 (centres unmarked)
A. 0.3 µg/mL

Q. Quick one: `Cc1cc(CN2CCC(C(N)=O)CC2)ccc1COc1c(C)cccc1-c1csc(N2CCC(C(=O)O)CC2)n1`
A. > 56 µg/mL

Q. Now give it for `Cc1ccc(OCc2ccc(C(=O)N3CCCOCC3)cc2C)c(-c2csc(N3C[C@H]4CC[C@@H](C3)[C@H]4C(=O)O)n2)c1` too.
A. < 0.1 µg/mL

Q. Likewise for `Cc1cc(CN2CCC(O)CC2)ccc1COc1c(C)cccc1-c1csc(N2CCC(C(=O)O)CC2)n1` ?
A. 16 µg/mL

Q. Follow-up entry: Cc1ccc(OCc2ccc(CN3CCOCC3)cc2C)c(-c2csc(N3CCC(CC(=O)O)C3)n2)c1 (centres unmarked)
A. > 56 µg/mL

Q. Next record, please: Cc1ccc(OCc2ccc(CN3CCS(=O)(=O)CC3)cc2C)c(-c2csc(N3CCCC(C)(C(=O)O)CC3)n2)c1 (centres unmarked)
A. < 0.1 µg/mL

Q. And for Cc1ccc(OCc2ccc(C(=O)N3CCOCC3)cc2C)c(-c2csc(N3CC4(CC4C(=O)O)C3)n2)c1 (centres unmarked) ?
A. 0.69 µg/mL
